- SYSTEM_TESTED: LINGO4
- METHOD_NOTES: pooled miR-30 sensor sort-seq; sequence = guide strand
- PARTICULARS: shRNA
QUANTITY: sensor-assay potency score (higher = more potent)

1) TTCCACCTGGATGACTTCCAGC: -1.16
2) TGTGATGTTTGACCCGACCTTT: -0.94
3) TCTAGGACCCTTACTCTCCCAG: -0.898
4) TGAGGTGGTACAGTGCTTGGAA: 0.431
5) ATCTAGGAAGAGAACAATCTGG: -0.599

###

Measured sensor-assay potency score (higher = more potent), listed per entry for reference.
- SYSTEM_TESTED: MUC4
- METHOD_NOTES: pooled miR-30 sensor sort-seq; sequence = guide strand
- PARTICULARS: shRNA
QUANTITY: sensor-assay potency score (higher = more potent)

1) TTGAAGAATCCTGACAGCCTTC: -0.37
2) TAACTGACACCATCCAAGGTGG: -0.587
3) TTCAGGAAATAGGAGAACCTGG: -1.36
4) TTGTCTGTGAAGTAGAGGGAAT: -1.17
5) TAGATGGAGAAGGACACACAGC: -1.17
6) TTCAGGAAGTCAATGACCGGGC: -0.298
7) TTCACCATAGAACGTCTCGTAT: -0.617

###

Measured sensor-assay potency score (higher = more potent), listed per entry for reference.
- SYSTEM_TESTED: RCSD1
- METHOD_NOTES: pooled miR-30 sensor sort-seq; sequence = guide strand
- PARTICULARS: shRNA
QUANTITY: sensor-assay potency score (higher = more potent)

1) TTTGATACAATTTAGGGTCTTC: 0.305
2) TAACTGATATTTGAGAACCGTA: -1.05
3) TTAAAAAGGAACTTTACCCAAG: -0.456
4) TTCCTTAGCACCGTTCTGCTGA: 0.0396
5) TAGAACATTAAAAAGGAACTTT: 0.0564
6) TATCTCTTCTAGTCCAGTGTTT: -0.522
7) TTGTTGTTGAACCAAGTCCATC: -1.65

###

- SYSTEM_TESTED: MMP20
- METHOD_NOTES: pooled miR-30 sensor sort-seq; sequence = guide strand
- PARTICULARS: shRNA
QUANTITY: sensor-assay potency score (higher = more potent)

1. TAGTCTTTTTCCATTTTCCTTT: -0.827
2. TGTAGCTCCTTAATCTTCCTTA: -0.0346
3. TTTCCTTTCGTCGTAGCTGTAG: -0.397
4. TTCCTTATCATGGAATTGCTTC: -0.732
5. TTTCCTTTTCCTTTCGTCGTAG: 0.328
6. TAATTCTACAGCAGCATCGATT: -0.811
7. TATTTGTGTAATATTTGTCAAG: -1.1
8. TTCTTGTACTTATAAGTTGGGT: -0.728

###

Measured sensor-assay potency score (higher = more potent), listed per entry for reference.
- SYSTEM_TESTED: COL4A2
- METHOD_NOTES: pooled miR-30 sensor sort-seq; sequence = guide strand
- PARTICULARS: shRNA
QUANTITY: sensor-assay potency score (higher = more potent)

1) TAGTAGCAGACATCACCAGGGT: 0.056
2) TACATCTGCATTCCCCAGCGTC: -0.779
3) TTAAATCTCAGGGACAACGTGG: -0.373
4) TTGGTCTCCTTTCTGTCCTGGG: -0.772
5) TCACACACAGAACAGCGGCTGA: -0.772
6) TAAATTTATAGTGTCCCCGATG: -0.984
7) TTGGTTGTGATTGTTCTGGAAT: -0.89
8) TATCCGATCCACAAACTCCGCC: -0.539
9) TAGGGCTTGATCTCGTCCTCGG: -0.228
10) TAGTAGTGGCAGGTGCCGCGGC: -0.784
11) TACAGGAAGGGCATGGTGCTGA: -0.213
12) TTTGTAGTCGTTACACAGGAGG: -1.03

###

Measured sensor-assay potency score (higher = more potent), listed per entry for reference.
- SYSTEM_TESTED: TCEANC2
- METHOD_NOTES: pooled miR-30 sensor sort-seq; sequence = guide strand
- PARTICULARS: shRNA
QUANTITY: sensor-assay potency score (higher = more potent)

1) TACAACCACAACTCTCTTCAGA: -0.694
2) TAGAAGGTCTATTTGAATGTTT: -0.0592
3) TTACGCATCTTGTTCACAGTGT: 0.769
4) TTGATTTTAACACTTCCCTGGA: 0.232
5) TTTCTGAGCATTTTTCCTCAAC: -1.1
6) TTCTACAACCACAACTCTCTTC: -0.1

###

- SYSTEM_TESTED: DHCR7
- METHOD_NOTES: pooled miR-30 sensor sort-seq; sequence = guide strand
- PARTICULARS: shRNA
QUANTITY: sensor-assay potency score (higher = more potent)

1) TATAGGTGGAGTCTTGGCCCAG: -1.1
2) TTGTCGAAGATGATGGTGGGCG: -0.346
3) TACTTGTTCACAACCCCTGCAG: -0.0403
4) TTGCAGTCTCTGGCGCTGGTGG: -0.837
5) TTGCCTGTGAATTTGCAGTCTC: -0.449
6) TTGAAGAACAGCTTGAAGTCAA: 0.748
7) TTGTAAAAGAAATTGCCTGTGA: 0.127
8) TTGACCATGGCGAAGGTGGAGA: -0.859
9) TTGGCTTTGGGAATGTTGGGTT: 0.501
10) TCAATGGTCTTCAGGTACCAGG: -1.35
11) AACAGCTTGAAGTCAAACCACT: -1.51
12) TAGGAAGATGACGCTCGCCAGT: -1.46
13) TAGTTGTAAAAGAAATTGCCTG: -0.825
14) TGATACTTGTTCACAACCCCTG: -0.124

###

Measured sensor-assay potency score (higher = more potent), listed per entry for reference.
- SYSTEM_TESTED: CD300E
- METHOD_NOTES: pooled miR-30 sensor sort-seq; sequence = guide strand
- PARTICULARS: shRNA
QUANTITY: sensor-assay potency score (higher = more potent)

1. ATACTGACACCACACTGTCAGA: -1.71
2. ACTGTCTGAATTTTGCACCAGT: -0.28
3. TGAATTTTGGGTCAACACCTCC: -1.03
4. ATGACGTGTCGTACTGTCCTCG: -0.632
5. TTGGGGTTGTAATTGCTGGGGA: -0.0469
6. TTGTACATGCTCTCATACTGAC: -0.406
7. TGGTCTCTGATGGACACGCGGC: -1.67

###

Measured sensor-assay potency score (higher = more potent), listed per entry for reference.
- SYSTEM_TESTED: NFE2L1
- METHOD_NOTES: pooled miR-30 sensor sort-seq; sequence = guide strand
- PARTICULARS: shRNA
QUANTITY: sensor-assay potency score (higher = more potent)

1. TAAGTATCCACGTCCACCCGTA: 0.169
2. TAAGTCTCCACTGACTGGGGGG: -0.685
3. TAATTGTCCAGGTCTATGCTCT: -0.487
4. TTACTCAACACAAGCATTCTAG: 0.0111
5. TTGAATATTGGGCATCTCCTTT: -0.276
6. TTAGCAGCTTTGAATATTGGGC: -0.506

###

Measured sensor-assay potency score (higher = more potent), listed per entry for reference.
- SYSTEM_TESTED: UXS1
- METHOD_NOTES: pooled miR-30 sensor sort-seq; sequence = guide strand
- PARTICULARS: shRNA
QUANTITY: sensor-assay potency score (higher = more potent)

1) TTAGTGGTTCAACCATCTCTTC: -1.31
2) TTGTCTGAGACCCGGATCCGTA: -1.19
3) TAGATCGCTGACGTACTGGAAC: -0.778
4) TATACATGTAGTTTGGAGGGGA: 0.245
5) TTAACTGAGCAAATTCTAGGAT: 0.0899
6) TTCAACCATCTCTTCAATCTTG: -0.0638

###

- SYSTEM_TESTED: PKLR
- METHOD_NOTES: pooled miR-30 sensor sort-seq; sequence = guide strand
- PARTICULARS: shRNA
Each record's class is read off its sensor-assay potency score (higher = more potent) using these ranges: bottom = under -1, middle = from -1 up to -0.5, top = -0.5 and over

1) TCGCTTGTCTCTGCCCTCGTTG: bottom
2) TGTGGCACAGACAACAGGCTTG: top
3) TAATTGGACACAGACTTTCAGG: middle
4) TAGCTCCTCAAACAGCTGCCGG: bottom
5) TCGTGGTTCTCAATTTTGCTGA: top
6) ATGCTCTCCAGCATCTGTGTGG: bottom

From: the OligoGym collection
